Hey, just so you know, these numbers are from patent US12540150B1.

# PROTOCOL TEXT: Stability of 1 under ambient conditions by 1H NMR
# Type: physicochemical
# MEASUREMENT PARAMETERS: DMSO-d6 solution, room temperature, in air, read-out: half-life of cis-trans isomerization of the enol ether (converted)
# Excerpt: Since organic selenides are prone to oxidation in air, the stability of 1 under ambient conditions was investigated. To study the stability of 1, the ^1H NMR spectra of 1 in DMSO-d6 were obtained at specified intervals (days 1, 7, 14, 21, 30 and 60). The solution was left at room temperature and in air throughout the entire period. [drawing 26] were observed. […]
MEASURE NAME: half-life (days)
I only need the number, in days, no unit after it.

Task item: For the compound Oc1ccc2c(c1)Oc1cc(O/C=C/C[Se]c3ccccc3)ccc1[C@@]21OCc2ccccc21 , what half-life is on record?
Reply: 60
